In this section, each of the compounds is paired with its reported inhibition at 10 µM.
- system.tested: UniProt P46734
- Sequence (P46734 whole entry): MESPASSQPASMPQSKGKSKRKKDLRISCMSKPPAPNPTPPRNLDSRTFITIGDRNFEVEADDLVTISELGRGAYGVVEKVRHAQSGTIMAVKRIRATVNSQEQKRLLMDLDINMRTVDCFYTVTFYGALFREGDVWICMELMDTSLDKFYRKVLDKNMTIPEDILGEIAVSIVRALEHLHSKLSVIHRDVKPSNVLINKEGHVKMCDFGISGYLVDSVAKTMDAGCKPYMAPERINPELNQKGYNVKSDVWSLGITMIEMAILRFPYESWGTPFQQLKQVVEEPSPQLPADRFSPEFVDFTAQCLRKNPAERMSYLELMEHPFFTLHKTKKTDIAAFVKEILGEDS
- assay.overview: KiNativ assay
- Assay type: binding
- experimental.setup: H929 live cell, read-out: inhibition (10 μM)
attribute.measured: inhibition at 10 µM

INSERT INTO results (entry_smiles, value) VALUES
  ('CN(C1CC1)S(=O)(=O)c1ccc(-c2cnc(N)c(-c3ccc4c(c3)CCNC4=O)c2)c(F)c1', '1.4%'),
  ('Nc1ncc(-c2cccc3ncsc23)cc1-c1ccc2c(c1)CCNC2=O', '1.1%'),
  ('Nc1ncc(-c2cccc([N+](=O)[O-])c2F)cc1-c1ccc2c(c1)CCNC2=O', '-34.2%'),
  ('COc1cc(NS(=O)(=O)C2CC2)ccc1-c1cnc(N)c(-c2ccc3c(c2)CCNC3=O)c1', '-5.7%'),
  ('Nc1ncc(-c2ccc(NS(=O)(=O)C3CC3)cc2F)cc1-c1ccc2c(c1)CCNC2=O', '0.9%'),
  ('Nc1ncc(-c2ccc(NS(=O)(=O)C3CC3)cc2OC2CCCCC2)cc1-c1ccc2c(c1)CCNC2=O', '-6.1%');
